Give remaining activity at 40 µM for every item shown.
- TARGET_ENTITY: bovine trypsin (Bos taurus, UniProt P00760)
- Construct: purchased Sigma-Aldrich T8003
- Sequence (P00760 24-246): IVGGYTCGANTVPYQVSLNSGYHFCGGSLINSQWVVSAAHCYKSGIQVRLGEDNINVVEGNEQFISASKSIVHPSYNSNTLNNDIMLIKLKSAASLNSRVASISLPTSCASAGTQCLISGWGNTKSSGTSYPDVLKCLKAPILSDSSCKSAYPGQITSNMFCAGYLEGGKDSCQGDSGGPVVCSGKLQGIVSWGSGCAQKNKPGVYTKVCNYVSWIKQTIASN
- ASSAY_PROTOCOL: Trypsin inhibition assay (proteolytic activity on BApNA)
- Format: biochemical
- COND: Concentration 40000 nM; fraction of uninhibited activity; read-out: mean (Figure 3c, dose-response, relative trypsin activity)
Numbers only, in %.

Sample answers from the record:
MOLECULE | remaining activity at 40 µM (%)
N=C(N)c1ccc(CNCc2ccc(C(=O)NCCNC(=S)Nc3cccc(I)c3)cc2)cc1 [Compound T-2] | 7.09
N=C(N)c1ccc(CN)cc1 [4-Aminomethyl benzamidine, 4-aminomethyl benzamidine, reference compound] | 82.5
N=C(N)c1ccc(CNC(=S)Nc2cccc(I)c2)cc1 [Compound T-0] | 23.7
N=C(N)c1ccc(CNC(=O)C2CCC(C(=O)NCCNC(=S)Nc3cccc(I)c3)CC2)cc1 (centres unmarked) [Compound T-3] | 3.2

Proceeding to the next molecule to report its remaining activity at 40 µM.
Kindly note the recorded remaining activity at 40 µM for S=C=Nc1ccccc1I [Compound B, 2-iodophenyl isothiocyanate, reference compound] , which is 105

###

- TARGET_ENTITY: MMP-9 (Homo sapiens, UniProt P14780)
- Construct: purchased Sino Biological 10327-HNAH
- Sequence (P14780 107-707 limits assumed): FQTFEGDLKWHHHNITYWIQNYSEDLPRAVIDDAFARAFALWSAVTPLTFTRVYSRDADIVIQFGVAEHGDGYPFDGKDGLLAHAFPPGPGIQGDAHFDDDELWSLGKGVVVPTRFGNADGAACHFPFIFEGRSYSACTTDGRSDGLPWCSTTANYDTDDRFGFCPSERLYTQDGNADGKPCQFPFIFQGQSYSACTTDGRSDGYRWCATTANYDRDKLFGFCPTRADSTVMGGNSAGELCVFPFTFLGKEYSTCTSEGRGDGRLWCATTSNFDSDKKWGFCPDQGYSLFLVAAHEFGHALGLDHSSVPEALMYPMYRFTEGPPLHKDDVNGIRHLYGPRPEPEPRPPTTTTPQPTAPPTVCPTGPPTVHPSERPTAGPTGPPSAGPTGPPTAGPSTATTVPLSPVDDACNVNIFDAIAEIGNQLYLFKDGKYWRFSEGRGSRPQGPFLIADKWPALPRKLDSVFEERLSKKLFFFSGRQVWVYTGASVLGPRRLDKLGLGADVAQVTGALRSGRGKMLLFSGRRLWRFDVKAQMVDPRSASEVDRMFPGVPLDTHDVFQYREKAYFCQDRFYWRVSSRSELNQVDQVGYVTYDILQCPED
- ASSAY_PROTOCOL: MMP-9 inhibition assay (fluorogenic peptide substrate)
- Type: biochemical
- Set-up: scale not given here
- COND: MMP-9; concentration 1.95 µM
Assign remaining enzyme activity (% of control) to each entry below.
Give bare numbers.

Previously resolved entries follow.
CHEM_SMILES | TARGET_ENTITY | remaining enzyme activity (% of control)
Cc1cc(=O)[nH]c(-n2nc(C)c(CCC(=O)NCCOCCOCCNC(=O)CCC(=O)NCc3c[nH]nn3)c2C)n1 | MMP-9 (Homo sapiens, UniProt P14780) | 96.19
O=C(C=CCCCCNC(=O)c1cncc(O)c1)CC(=O)NCC12CC3CC(CC(C3)C1)C2 | MMP-9 (Homo sapiens, UniProt P14780) | 101.49
O=C(CCCCCCC(=O)NCC12CC3CC(CC(C3)C1)C2)NCc1c[nH]nn1 | MMP-9 (Homo sapiens, UniProt P14780) | 95.00

Turning now to a further record.
GET /value?item= `Cn1c(O)nc2cc(C(=O)NCCCCCCCCNC(=O)CNC(=O)NC34CC5CC(CC(C5)C3)C4)cnc21` &field=remaining enzyme activity (% of control) returns 89.16

###

Please provide measured remaining activity (%) for the entries that follow.
- TARGET_ENTITY: MMP-2 (Homo sapiens, UniProt P08253)
- Construct: purchased Sino Biological 10082-HNAH
- Sequence (P08253 110-660): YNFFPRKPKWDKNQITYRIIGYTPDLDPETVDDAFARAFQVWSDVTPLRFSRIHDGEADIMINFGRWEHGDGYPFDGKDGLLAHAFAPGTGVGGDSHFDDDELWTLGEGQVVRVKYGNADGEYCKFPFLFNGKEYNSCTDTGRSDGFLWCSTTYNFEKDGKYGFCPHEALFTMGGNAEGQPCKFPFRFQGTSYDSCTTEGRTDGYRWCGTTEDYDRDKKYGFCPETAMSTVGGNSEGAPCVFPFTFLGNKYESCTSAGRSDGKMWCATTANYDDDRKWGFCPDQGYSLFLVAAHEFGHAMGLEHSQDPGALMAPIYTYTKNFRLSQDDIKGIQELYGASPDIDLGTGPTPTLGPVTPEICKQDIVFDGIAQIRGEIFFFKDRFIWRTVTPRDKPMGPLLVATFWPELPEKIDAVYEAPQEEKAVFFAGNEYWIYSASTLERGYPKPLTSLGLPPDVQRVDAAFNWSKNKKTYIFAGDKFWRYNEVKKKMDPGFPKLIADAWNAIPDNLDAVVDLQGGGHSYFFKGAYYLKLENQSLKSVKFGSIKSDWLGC
- ASSAY_PROTOCOL: MMP-2 inhibition assay (fluorogenic peptide substrate)
- Type: biochemical
- COND: MMP-2; concentration 125.00 µM

CHEM_SMILES | MEASUREMENT_TYPE | OBSERVED_VALUE
Cc1cc(=O)[nH]c(-n2nc(C)c(CCC(=O)NCCNC(=O)CC(=O)C=CCCCCNC(=O)c3cnc4c(c3)nc(O)n4C)c2C)n1 | remaining activity (%) | 65.75
Cc1cc(=O)[nH]c(-n2nc(C)c(CCC(=O)NCCNC(=O)c3cnc4c(c3)nc(O)n4C)c2C)n1 | remaining activity (%) | 92.36
Cn1c(O)nc2cc(C(=O)NCCOCCOCCNC(=O)CNC(=O)NC34CC5CC(CC(C5)C3)C4)cnc21 | remaining activity (%) | 88.04
Cn1c(O)nc2cc(C(=O)NCCCC/C=C/C(=O)CC(=O)NCC34CC5CC(CC(C5)C3)C4)cnc21 | remaining activity (%) | 94.81

Report remaining activity (%) for each item below.
1. Cn1c(O)nc2cc(C(=O)NCC34CC5CC(CC(C5)C3)C4)cnc21
2. Cn1c(O)nc2cc(C(=O)NCCSCC(=O)NCC34CC5CC(CC(C5)C3)C4)cnc21
3. Cc1cc(=O)[nH]c(-n2nc(C)c(CCC(=O)NCCCCCCCCNC(=O)c3cnc4c(c3)nc(O)n4C)c2C)n1

1. 90.24
2. 93.82
3. 94.34

###

- TARGET_ENTITY: MMP-2 (Homo sapiens, UniProt P08253)
- Construct: purchased Sino Biological 10082-HNAH
- ASSAY_PROTOCOL: MMP-2 inhibition assay (fluorogenic peptide substrate)
- Assay type: biochemical
- COND: MMP-2; concentration 0.08 µM
Could you please report measured remaining activity (%) for the items listed next?

The examples below pair each entry with its known result.
CHEM_SMILES | TARGET_ENTITY | remaining activity (%)
O=C(CNC(=O)NC12CC3CC(CC(C3)C1)C2)NCCSCC(=O)NCc1c[nH]nn1 | MMP-2 (Homo sapiens, UniProt P08253) | 100.74
Cc1cc(=O)[nH]c(-n2nc(C)c(CCC(=O)NCCCCCCCCNC(=O)CCC(=O)NCc3c[nH]nn3)c2C)n1 | MMP-2 (Homo sapiens, UniProt P08253) | 98.42
Cc1cc(=O)[nH]c(-n2nc(C)c(CCC(=O)NCc3c[nH]nn3)c2C)n1 | MMP-2 (Homo sapiens, UniProt P08253) | 98.78

Moving on to the next compound.
// remaining activity (%) value for `O=C(CNC(=O)NC12CC3CC(CC(C3)C1)C2)NCc1c[nH]nn1` : 91.88

###

Kindly state remaining activity at 8 µM for each of the entries shown.
- TARGET_ENTITY: bovine carbonic anhydrase II (CAII) (Bos taurus, UniProt P00921)
- Construct: purchased Sigma-Aldrich C7749
- Sequence (P00921 whole entry): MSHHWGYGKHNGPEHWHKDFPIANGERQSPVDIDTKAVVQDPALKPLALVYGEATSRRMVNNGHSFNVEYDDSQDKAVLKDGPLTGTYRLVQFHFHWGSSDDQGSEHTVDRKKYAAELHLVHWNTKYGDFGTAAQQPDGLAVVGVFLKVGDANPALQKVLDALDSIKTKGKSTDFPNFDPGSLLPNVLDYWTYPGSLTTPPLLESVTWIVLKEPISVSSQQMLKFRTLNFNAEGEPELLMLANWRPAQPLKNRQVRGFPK
- ASSAY_PROTOCOL: Carbonic anhydrase II inhibition assay (esterase activity on p-nitrophenyl acetate)
- Assay type: biochemical
- COND: 8000 nM compound; source data of Fig. 2c; read-out: Normalized CA II Activity (Mean)
- Description: CAII inhibition assay was performed to measure the inhibitory effect of re-synthesized CBS-conjugates. The esterase activity of CAII with a chromogenic substrate p-nitrophenyl acetate (pNPA) was measured. The rates of hydrolysis were determined by an increase of absorption at 410 nm after incubating different compounds with CAII. […] The absorption was measured at 37 °C each 10 sec for 15 min using a Beckman Coulter’s Paradigm Detection Platform (Brea, USA). […]
Numbers only, in %.

Guide cases for remaining activity at 8 µM, answers given:
CHEM_SMILES | TARGET_ENTITY | OBSERVED_VALUE
NS(=O)(=O)c1ccc(NC(=O)/C=C/c2ccc(-c3ccccc3C(F)(F)F)o2)cc1 | bovine carbonic anhydrase II (CAII) (Bos taurus, UniProt P00921) | 38.2
NS(=O)(=O)c1ccc(NCc2ccc(C(=O)NCCNC(=O)/C=C/c3ccc(-c4ccccc4C(F)(F)F)o3)cc2)cc1 | bovine carbonic anhydrase II (CAII) (Bos taurus, UniProt P00921) | 19.9
NS(=O)(=O)c1ccc(NC(=O)COCC(=O)NCCNC(=O)/C=C/c2ccc(-c3ccccc3C(F)(F)F)o2)cc1 | bovine carbonic anhydrase II (CAII) (Bos taurus, UniProt P00921) | 33.3
NS(=O)(=O)c1ccc(NC(=O)c2ccc(-n3cc(CCC(=O)NCCNC(=O)/C=C/c4ccc(-c5ccccc5C(F)(F)F)o4)nn3)cc2)cc1 | bovine carbonic anhydrase II (CAII) (Bos taurus, UniProt P00921) | 42.3

// switching to the query compound
Considering `NS(=O)(=O)c1ccc(NC(=O)COc2ccccc2OCC(=O)NCCNC(=O)/C=C/c2ccc(-c3ccccc3C(F)(F)F)o2)cc1` , its remaining activity at 8 µM with bovine carbonic anhydrase II (CAII) (Bos taurus, UniProt P00921) was recorded as 25.6

###

- TARGET_ENTITY: MMP-9 (Homo sapiens, UniProt P14780)
- Construct: purchased Sino Biological 10327-HNAH
- ASSAY_PROTOCOL: MMP-9 inhibition assay (fluorogenic peptide substrate)
- Assay type: biochemical
- Parameters: scale not given here
- COND: MMP-9; concentration 125.00 µM
- Method: The inhibition by the small molecule compounds against MMP-2/MMP-9 was measured using an assay probing the enzyme proteolytic activity on the substrate DNP-Pro-Leu-Gly-Met-Trp-Ser-Arg (Enzo Life Sciences, USA). All assays were performed in the assay buffer containing 50 mM Tris, 100 mM NaCl. […] The rate of hydrolysis was monitored by quantifying the emission at 360 nm (ex: 280 nm). The emission was measured with intervals of the 30 s for 30 min with Synergy H1 Plate Reader (Agilent, USA). […]
Checkbox rule: remaining enzyme activity (% of control) lower than 90 = 1.0; remaining enzyme activity (% of control) not lower than 90 = 0.0.

COMPOUND | CLASS
Cn1c(O)nc2cc(C(=O)NCCSCC(=O)NCC34CC5CC(CC(C5)C3)C4)cnc21 [66+826 Linker 24] | 0.0
Cc1cc(=O)[nH]c(-n2nc(C)c(CCC(=O)NCCCCCCCCNC(=O)c3cnc4c(c3)nc(O)n4C)c2C)n1 [693+826 Linker 4] | 1.0
Cn1c(O)nc2cc(C(=O)NCCOCCOCCNC(=O)CNC(=O)NC34CC5CC(CC(C5)C3)C4)cnc21 [66+826 Linker 10] | 1.0
Cc1cc(=O)[nH]c(-n2nc(C)c(CCC(=O)NCCSCC(=O)NCCNC(=O)c3cnc4c(c3)nc(O)n4C)c2C)n1 [693+826 Linker 24] | 1.0
Cc1cc(=O)[nH]c(-n2nc(C)c(CCC(=O)NCCOCCOCCNC(=O)c3cnc4c(c3)nc(O)n4C)c2C)n1 [693+826 Linker 10] | 1.0

Is remaining enzyme activity (% of control) of Cn1c(O)nc2cc(C(=O)NCCCC/C=C/C(=O)CC(=O)NCC34CC5CC(CC(C5)C3)C4)cnc21 [66+826 Linker 12] strictly below 90?
0.0
